B1: HDV Ribozyme (parent)
chain: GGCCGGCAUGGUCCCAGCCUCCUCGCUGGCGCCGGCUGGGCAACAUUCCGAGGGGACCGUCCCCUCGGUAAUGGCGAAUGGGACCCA

- Variants of: B1
- Assay protocol: self-cleavage, relative activity (ratio to wild type); higher = more cleavage; co-transcriptional
Categories are defined by ranges of self-cleavage, namely low (below 0.2), medium (0.2 to below 0.5), high (0.5 or more)

Study these solved cases before continuing.
C14U C75A	medium
A56G C66U	high
U23C C84A	high
G2C A71U	low
G28U G35A	low

Hi there! Could you help me figure out the category for U69C G80A please?
medium

Hi there! Could you help me figure out the category for G38U G39C please?
low

Hi there! Could you help me figure out the category for C30U C61A please?
high

These measurements were taken from the RNAGym collection of RNA variant scans (doi:10.7554/elife.80360).
